Each record here notes measured TGI.
test system: UO-31 renal; experiment: NCI tumour cell line growth inhibition, 48 h
Where a SMILES comes first, the peptide text is derived from it. [ ]: non-standard residue; d: D form. The star is where a group is joined. Cbz = O=C(OCc1ccccc1)*; Boc = CC(C)(C)OC(=O)*; Aib = CC(C)(N)C(=O)O; OBn = c1ccc(CO*)cc1; OtBu = CC(C)(C)O*; βAla = NCCC(=O)O
measuredAttribute: TGI

>>> result("Cc1cc(/C=C2\\SC(=Nc3ccccc3)N(C3CCCC3)C2=O)c(C)n1-c1ccc(Cl)cc1")
"> 100 µM"
>>> result("CCCCCCCCCCCCCCCCCCOCC(O)COP(=O)(O)OCC1OC(n2cc(F)c(=O)[nH]c2=O)CC1O (configuration not stated)")
"19.6 µM"
>>> result("NC(CCCCNC(=O)OCc1ccccc1)C(=O)NC(CCCCNC(=O)OCc1ccccc1)C(=O)ON1C(=O)CCC1=O (configuration not stated)")
"> 100 µM"
>>> result("COC(=O)CCC/C=C\\C[C@H]1C=CC(=O)/C1=C/C[C@@H](O)CCc1cccc(C(F)(F)F)c1")
"3.29 µM"
>>> result("CCN(CC)CCCNc1ccc2nnn3c4ccc(O)cc4c(=O)c1c23")
"6.27 µM"
>>> result("CC(C)(C)OC(=O)N1C(OP(=O)(Oc2ccccc2)Oc2ccccc2)=COc2cccnc21")
"> 100 µM"
>>> result("N#CCCN(CCCN(C(=O)Nc1ccccc1)c1ccccc1)C(=O)Nc1ccccc1")
"> 100 µM"
>>> result("N#CC(C#N)=C(N)/C(C#N)=C\\c1ccnc2ccccc12")
"40.9 µM"
>>> result("CC(C)c1ccc(Cc2cnc(NC(=O)c3cc(Br)cs3)s2)cc1")
"> 100 µM"
>>> result("CC(=O)O/N=C/c1ncccc1CO")
"> 100 µM"
>>> result("COc1cc2c(cc1C)NC(=O)/C2=C\\c1cc(OC)c(OC)c(OC)c1")
"> 100 µM"
>>> result("CC1=CSC2=NC(c3ccc(Cl)c(Cl)c3)=CC(c3ccc(Cl)cc3)N12 (configuration not stated)")
"> 100 µM"
>>> result("Cc1cc2c(CC(=O)O)[nH]nc2c(C(=O)O)c1C")
"> 100 µM"
>>> result("CCOC(=O)c1c(N2CCOCC2)[nH]c(=O)c(C(c2ccc(OC)cc2)c2c(O)c(C(=O)OCC)c(N3CCOCC3)[nH]c2=O)c1O")
"> 100 µM"
>>> result("CCOC(=O)c1cn(-c2ccc(Cl)cc2)c(=O)n2c1nc1ccccc12")
"> 100 µM"
>>> result("CC(C)(C)OC(=O)CC(NC(=O)OC(C)(C)C)C(=O)NC(CCCCNC(=O)OCc1ccccc1)C(=O)NC(C)(C)C(=O)NCCC(=O)OCc1ccccc1 (configuration not stated) (Boc-D(OtBu)K(Cbz)[Aib][βAla]-OBn; configuration not given here)")
"> 100 µM"
>>> result("CN(C)CCNc1nc2ccccc2c2c1c1c(n2Cc2ccccc2)-c2ccccc2C1=O")
"35.4 µM"
>>> result("CCN(CC)CCn1c2c3ccccc3ccc2c2oc(=O)c3ccccc3c21")
"> 100 µM"
>>> result("O=C1C(Br)=C[C@H]2C3C=CC(Br)(C3=O)[C@@H]12 (some centres not stated)")
"31.1 µM"
>>> result("Nc1ccc(C(=O)N/C(=C\\C=C\\c2ccco2)c2nc3[nH]c(=S)[nH]c(=O)c3[nH]2)cc1")
"> 100 µM"
>>> result("CSC(=NC1=NC(C(F)(F)F)(C(F)(F)F)N=C(c2ccccc2)O1)SC")
"89.2 µM"
>>> result("CCN(CC)CCCCC1CCN(CC(=O)N2CC(C)C(=O)Nc3ccccc32)CC1 (configuration not stated)")
"> 100 µM"
>>> result("O=c1cc(-c2ccccc2)[nH]c2cc(Cl)cc(Cl)c12")
"> 100 µM"
>>> result("CCCCCCCCCCCCCCCCNc1nc(=O)n(C2CC(O)C(CO)O2)cc1F (configuration not stated)")
"18.8 µM"
>>> result("CC1=CC[C@@H]2CC[C@]3(C)[C@H](CC[C@@H]4[C@@]5(C)CCCNC(C)(C)[C@@H]5CC[C@]43C)[C@H]2[C@@H]1C")
"2.82 µM"
>>> result("COC(=O)C(COC(=O)/C=C/c1ccc(OC(C)=O)c(OC(C)=O)c1)OC(=O)/C=C/c1ccc(OC(C)=O)c(OC(C)=O)c1 (configuration not stated)")
"21.8 µM"
>>> result("CSC1SCC2C(=O)N(C)C3(CC3C)C(=O)OCC(NC(=O)c3nc4ccccc4cc3O)C(=O)NC(C)C(=O)N(C)C1C(=O)N(C)C1(CC1C)C(=O)OCC(NC(=O)c1nc3ccccc3cc1O)C(=O)NC(C)C(=O)N2C (configuration not stated)")
"0.0093 µM"
>>> result("CC(C)=CC(C(O)c1ccccc1)S(=O)(=O)c1nccn1C (configuration not stated)")
"> 100 µM"
>>> result("CSc1nncc(-c2cc3c(c(SC)n2)CCC3)n1")
"> 100 µM"
>>> result("COc1cc(OC)c(/C=C/c2ccc3ccccc3[n+]2C)c(OC)c1")
"54 µM"
>>> result("CCOC(=O)C(Cc1ccccc1)(Cc1ccc(O)cn1)NC(=O)c1ccccc1 (configuration not stated)")
"> 100 µM"
>>> result("C=CCNC(=S)N1CC(C)C(=O)Nc2ccccc21 (configuration not stated)")
"> 100 µM"

* * *

Each record here notes measured TGI.
system: MDA-N; assay: NCI tumour cell line growth inhibition, 48 h
*1 amine or outer side, *2 acyl side, *3 side chain or, on linkers, in order; H or OH if unused. Where a SMILES comes first, the peptide text is derived from it. Bridges are numbered along the chain shown (N, C = ends). [ ]: non-standard residue; d: D form. The star is where a group is joined. ξ: configuration not given here. X4 = CCC(C)C(N[*:1])C(O)CC(=O)O[C@H](C(=O)C(C)C(=O)[*:2])C(C)C; NMeY = CN[C@@H](Cc1ccc(O)cc1)C(=O)O; ξNMeL = CNC(CC(C)C)C(=O)O; Cbz = O=C(OCc1ccccc1)*; Boc = CC(C)(C)OC(=O)*; Aib = CC(C)(N)C(=O)O; ξT = CC(O)C(N)C(=O)O; OBn = c1ccc(CO*)cc1; OtBu = CC(C)(C)O*; βAla = NCCC(=O)O
measuredAttribute: TGI

>>> result("COc1ccc2c(c1)C(=O)CC(N)C2 (stereo unspecified)")
"> 100 µM"
>>> result("O=C(O)c1ccccc1/C=N\\NC1=NCCCCN1")
"> 100 µM"
>>> result("CCOC(=O)c1c(N2CCOCC2)[nH]c(=O)c(C(c2ccc(OC)cc2)c2c(O)c(C(=O)OCC)c(N3CCOCC3)[nH]c2=O)c1O")
"> 100 µM"
>>> result("CSCCC(NC(=O)OC(C)(C)C)C(=O)NCCNc1ccc(NCCNC(=O)C(CCSC)NC(=O)OC(C)(C)C)c2c1C(=O)c1ccccc1C2=O (stereo unspecified)")
"7.03 µM"
>>> result("CSc1ncc2c(n1)-c1ccccc1OC2N1CCCC1 (stereo unspecified)")
"> 100 µM"
>>> result("CCC(C)C1NC(=O)C(NC(=O)C(CC(C)C)N(C)C(=O)[C@@H]2CCCN2)C(C)OC(=O)[C@H](Cc2ccc(OC)cc2)N(C)C(=O)[C@@H]2CCCN2C(=O)[C@H](CC(C)C)NC(=O)C(C)C(=O)[C@H](C(C)C)OC(=O)CC1O (stereo partly specified) (H-P[ξNMeL][ξT][X4]LP[NMeY](Me); ester 3-C)")
"0.0107 µM"
>>> result("CCCCN(c1ccccc1)c1ncnc2c1cnn2C")
"> 100 µM"
>>> result("CC(C)(C)OC(=O)CC(NC(=O)OC(C)(C)C)C(=O)NC(CCCCNC(=O)OCc1ccccc1)C(=O)NC(C)(C)C(=O)NCCC(=O)OCc1ccccc1 (stereo unspecified) (Boc-D(OtBu)K(Cbz)[Aib][βAla]-OBn; configuration not given here)")
"> 100 µM"
>>> result("Cc1ccc(O)c(C2=NNC(c3cccc(Br)c3)C2)c1 (stereo unspecified)")
"> 100 µM"
>>> result("CSC(=NC1=NC(C(F)(F)F)(C(F)(F)F)N=C(c2ccccc2)O1)SC")
"41.7 µM"
>>> result("Nc1nc2c(ncn2C2C=CC(CO)O2)c(=O)[nH]1 (stereo unspecified)")
"> 100 µM"
>>> result("COc1cc2ccnc3c2c(c1O)N(C)C=C3")
"> 38.4 µM"
>>> result("Cc1[nH]c(-c2ccccc2)c(-c2ccc(Cl)cc2)c1C(=O)ONC(=O)c1ccccc1")
"4.45 µM"
>>> result("CCCCCCCCCCCCCCCCCCOCC(O)COP(=O)(O)OCC1OC(n2cc(F)c(=O)[nH]c2=O)CC1O (stereo unspecified)")
"28.2 µM"
>>> result("COc1ccc(-c2c(C#N)c(-c3ccccc3)n(NS(=O)(=O)c3ccccc3)c(=O)c2C#N)cc1")
"> 100 µM"
>>> result("COC(=O)[C@@H]1N2C(=S)N(c3ccccc3)C(=O)[C@H]2SC1(C)C")
"> 100 µM"
